Assay: Host cell cytotoxicity in high content assay
Conditions: human
measured-attribute: CC50 at 96 h (µM)
Give just the numeric value; µM need not be written.

Problem: Please look up its CC50 at 96 h: C=CCN1C(=O)/C(=C\c2ccc(-c3ccc(Cl)c(Cl)c3)o2)C(=O)NC1=S [Compound 32]
Result: 77

* * *

Target: TcSir2rp3 (Trypanosoma cruzi, UniProt Q4E5B9)
Sequence (Q4E5B9 entry or part of it): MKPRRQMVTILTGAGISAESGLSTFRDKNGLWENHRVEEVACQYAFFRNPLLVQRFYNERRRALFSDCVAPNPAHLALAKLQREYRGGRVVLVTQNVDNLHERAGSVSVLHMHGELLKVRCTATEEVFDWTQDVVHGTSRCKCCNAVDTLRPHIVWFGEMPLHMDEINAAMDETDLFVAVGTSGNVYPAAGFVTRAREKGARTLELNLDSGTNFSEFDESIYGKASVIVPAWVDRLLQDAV
Test: biochemical
measured-attribute: IC50 (µM)
Give just the numeric value; µM need not be written.

>>> reading("C=CCN1C(=O)/C(=C\\c2ccc(-c3ccc(Cl)c(Cl)c3)o2)C(=O)NC1=S")
16.4

Note: attention shifts to another entry.
Problem: Please look up its IC50: CCCN1C(=O)/C(=C\c2ccc(-c3ccc(Cl)c(Cl)c3)o2)C(=O)NC1=S
Result: 16.3

* * *

So I've got IC50 readings for TcSir2rp1 (Trypanosoma cruzi), take a look.
Give just the numeric value; µM need not be written.

>>> reading("CCCCCSc1nc(-c2ccccc2)c(Cc2c(O)ccc3ccccc23)c(=O)[nH]1 [Compound 15]")
32.4

Problem: # get_value(readout= IC50, system= TcSir2rp1 (Trypanosoma cruzi)) for O=c1[nH]c(N/N=C/c2ccc([N+](=O)[O-])cc2)nc(-c2ccccc2)c1Cc1c(O)ccc2ccccc12 [Compound 17]
Result: 25.5

* * *

Assay: Host cell cytotoxicity in high content assay
Conditions: human, U2OS cells infected with T. cruzi Y H10 trypomastigotes
measured-attribute: CC50 at 96 h (µM)
Give just the numeric value; µM need not be written.

>>> reading("CC(CSc1cccc(/N=C/c2c(O)ccc3ccccc23)c1)c1ccccc1 (stereo not shown)")
76.8
>>> reading("O=c1[nH]c(N/N=C/c2ccc([N+](=O)[O-])cc2)nc(-c2ccccc2)c1Cc1c(O)ccc2ccccc12")
19.6

Note: attention shifts to another entry.
Problem: Please look up its CC50 at 96 h: O=c1[nH]c(SCc2ccc3ccccc3c2)nc(-c2ccccc2)c1Cc1c(O)ccc2ccccc12
Result: 48.8

* * *

Test: Host cell cytotoxicity in high content assay
Conditions: human, U2OS cells infected with T. cruzi Y H10 trypomastigotes
Listed here: items and their measured CC50 at 96 h.
Give just the numeric value; µM need not be written.

Problem: Please look up its CC50 at 96 h: CCOC(=O)/C(=C\c1cc(C(=O)c2ccccc2OC)c[nH]1)C(=O)Nc1cccc2ncccc12
Result: 46.9

Problem: Same thing, different compound: CCCCCSc1nc(-c2ccccc2)c(Cc2c(O)ccc3ccccc23)c(=O)[nH]1
Result: 36.4
